src = patent US20230303681A1

# fold-change over parental HEK293 annotations
target: T1, cynomolgus (cyno) TMEM106B (cynomolgus, UniProt Q9NUM4 2-274 (human entry)); assay: FACS, HEK293 transfectants;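 further: flow cytometry binding of hybridoma supernatants to HEK293 cells transiently expressing human, cyno or mouse TMEM106B, read as anti-mouse-APC median fluorescence, live cells only, 30 min on ice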
T1 construct: on transiently transfected HEK293 cells
Express the result in fold but write the number alone.

Example results:
binder | quantitative.readout
anti-TMEM106B antibody TM-4 (antibody, V domains shown) VH: EVQVQQSGPVLVKPGASVKMSCKASGYTFTDYYMNWVKQSHGKNLEWIGVINPYNGGTSYHQKFKGKATLTVDKSSSTAYMELNSLTSEDSAVYYCARAATVVAGFDYWGQGTTLTVSS VL: QAVVTQESALTTSPGETVTLTCRSSTGAVTTSNYANWVQEKPDHLFTGLIGGTNNRAPGVPARFSGSLIGDKAALTITGAQTEDEAIYFCVLWYSNHLVFGGGTKLTVL | 2.08
anti-TMEM106B antibody TM-6 (antibody, V domains shown, mouse IgG from hybridoma) VH: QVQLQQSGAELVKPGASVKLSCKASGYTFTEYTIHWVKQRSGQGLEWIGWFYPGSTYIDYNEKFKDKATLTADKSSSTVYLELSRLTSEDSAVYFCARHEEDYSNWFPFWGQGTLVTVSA VL: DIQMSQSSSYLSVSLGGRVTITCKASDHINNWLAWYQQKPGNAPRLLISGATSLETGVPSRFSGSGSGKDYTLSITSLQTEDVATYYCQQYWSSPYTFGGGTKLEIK | 1.25

Next up:
Which fold-change over parental HEK293 value belongs to anti-TMEM106B antibody TM-8 (antibody, V domains shown, mouse IgG from hybridoma) VH: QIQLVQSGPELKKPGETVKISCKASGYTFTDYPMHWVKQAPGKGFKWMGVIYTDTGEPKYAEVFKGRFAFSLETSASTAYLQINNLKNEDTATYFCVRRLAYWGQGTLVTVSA VL: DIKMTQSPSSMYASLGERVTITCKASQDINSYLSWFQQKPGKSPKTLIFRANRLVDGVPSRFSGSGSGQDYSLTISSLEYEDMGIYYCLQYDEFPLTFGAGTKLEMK ? 2.62
